- condition.label: buffer; pH 7.4; 200.0 µM
Hi there, I'd appreciate the recorded solubility kinetic for every entry that follows.
Give just the number in µg/mL; leave the unit off.

Sure, the documented solubility kinetic for `COc1cccc(C=Nc2ccc3c(c2)CCC3)c1O` is 26.8

Sure, the documented solubility kinetic for `COC(=O)c1cc2c(=O)c3ccccc3oc2nc1/C=C/N(C)C` is 30.1

Sure, the documented solubility kinetic for `COc1cc([N+](=O)[O-])cc2sc(NC(C)=O)nc12` is 2.7

Sure, the documented solubility kinetic for `CC(C)Cc1nc2sc3c(SCC(N)=O)ncnc3c2c2c1CCC2` is 0.3

Sure, the documented solubility kinetic for `O=C(CSc1ccccc1C(=O)O)NCc1ccccc1` is 44

Sure, the documented solubility kinetic for `NC(=O)CSc1nc2cccnc2n1-c1ccc(F)cc1` is 45.2

Sure, the documented solubility kinetic for `O=C(O)C1=C(C(=O)Nc2cc(C(F)(F)F)ccc2Cl)CCCC1` is 12.5

Sure, the documented solubility kinetic for `CNc1nc(NC#N)nc(SC)n1` is 24.9

Sure, the documented solubility kinetic for CCN(CC)CC(C)OC(=O)c1ccccc1Cl (stereo unspecified) is 37.9
